- TEST SYSTEM: truncated human beta-secretase (residues 1-458, His6-tagged at the C-terminus) (Homo sapiens, UniProt P56817)
- Construct: truncated human beta-secretase (residues 1-458, His6-tagged at the C-terminus); His6 (C); made in house; host or cells: insect cells D. melanogaster S2 (baculovirus expression system (so in the source))
- Sequence (P56817 22-458): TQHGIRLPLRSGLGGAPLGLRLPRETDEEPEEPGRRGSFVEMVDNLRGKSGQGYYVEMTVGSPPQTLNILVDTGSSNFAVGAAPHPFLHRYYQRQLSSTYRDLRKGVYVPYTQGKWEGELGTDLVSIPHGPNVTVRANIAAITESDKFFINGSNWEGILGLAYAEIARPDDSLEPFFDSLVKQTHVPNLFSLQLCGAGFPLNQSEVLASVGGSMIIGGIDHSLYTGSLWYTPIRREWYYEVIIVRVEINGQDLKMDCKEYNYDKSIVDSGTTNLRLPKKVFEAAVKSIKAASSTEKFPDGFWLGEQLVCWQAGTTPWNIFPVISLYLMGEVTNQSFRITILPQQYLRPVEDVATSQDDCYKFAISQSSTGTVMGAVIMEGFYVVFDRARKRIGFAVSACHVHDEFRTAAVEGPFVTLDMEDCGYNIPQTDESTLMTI
- MEASUREMENT NOTES: BACE fluorescence quench assay
- Assay type: biochemical
pIC50: −log10 of the molar value.

{"COMPOUND": "CN1C(=O)C2(CC(c3ccccc3)Oc3ccc(-c4cc(C#N)ccc4Cl)cc32)N=C1N (centres unmarked)", "pIC50": "6.00 to 6.30"}
{"COMPOUND": "CN1C(=O)C2(CC(c3ccccc3)Oc3ccc(Br)cc32)N=C1N (centres unmarked)", "pIC50": "4.30 to 5.00"}
{"COMPOUND": "CN1C(=O)C2(CC(c3ccccc3)Oc3ccc(-c4ccc(F)c(C#N)c4)cc32)N=C1N (centres unmarked)", "pIC50": "6.30 to 7.00"}
{"COMPOUND": "CN1C(=O)C2(CC(c3ccccc3)Oc3ccc(-c4ccc(C(F)(F)F)cc4)cc32)N=C1N (centres unmarked)", "pIC50": "4.30 to 5.00"}
{"COMPOUND": "CN1C(=O)C2(CC(c3ccccc3)Oc3ccc(-c4cccc(C(=O)N5CCCC5)c4)cc32)N=C1N (centres unmarked)", "pIC50": "4.30 to 5.00"}
{"COMPOUND": "CN1C(=O)C2(CC(c3ccccc3)Oc3ccc(-c4ccc(S(=O)(=O)N(C)C)cc4)cc32)N=C1N (centres unmarked)", "pIC50": "4.30 to 5.00"}
{"COMPOUND": "CN1C(=O)C2(CC(c3ccccc3)Oc3ccc(-c4cccs4)cc32)N=C1N (centres unmarked)", "pIC50": "5.30 to 6.00"}
{"COMPOUND": "CN1C(=O)[C@@]2(C[C@@H](c3ccccc3)Oc3ccc(Br)cc32)N=C1N (relative stereo) [Compound 44b]", "pIC50": "5.00 to 5.30"}

----------
Some compounds, each annotated with its measured IC50.
- TEST SYSTEM: truncated human beta-secretase (residues 1-458, His6-tagged at the C-terminus) (Homo sapiens, UniProt P56817)
- Construct: truncated human beta-secretase (residues 1-458, His6-tagged at the C-terminus); His6 (C); made in house; host or cells: insect cells D. melanogaster S2 (baculovirus expression system (so in the source))
- MEASUREMENT NOTES: BACE fluorescence quench assay
- Assay type: biochemical
- MEASUREMENT PARAMETERS: in vitro enzyme activity, BACE fluorescence assay, pH 4.5; read-out: IC50

{"COMPOUND": "CN1C(=O)C2(C[C@]3(CCCOC3)Oc3ccc(-c4cccc(Br)c4)cc32)N=C1N (stereo partly shown)", "IC50": "100 to 500 nM"}
{"COMPOUND": "COc1cc(F)cc(-c2ccc3c(c2)[C@]2(C[C@@]4(CCCOC4)O3)N=C(N)N(C)C2=O)c1", "IC50": "100 to 500 nM"}
{"COMPOUND": "CC(C)=CC(CCO)[C@H]1C[C@@]2(N=C(N)N(C)O2)c2cc(-c3cc(F)cc(F)c3)ccc2O1 (stereo partly shown)", "IC50": "1000 to 5000 nM"}
{"COMPOUND": "CN1C(=O)[C@@]2(C[C@@]3(CCCOC3)Oc3ccc(-c4cccc(C(F)(F)F)c4)cc32)N=C1N", "IC50": "100 to 500 nM"}
{"COMPOUND": "CN1O[C@@]2(C[C@@H]([C@H]3CCCOC3)Oc3ccc(-c4cc(F)cc(F)c4)cc32)N=C1N", "IC50": "1000 to 5000 nM"}
{"COMPOUND": "CN1OC2(CC(C3CCOC(C)(C)C3)Oc3ccc(-c4cc(F)cc(F)c4F)cc32)N=C1N (stereo not shown)", "IC50": "100 to 500 nM"}
{"COMPOUND": "CN1C(=O)C2(CC3(CCCOC3)Oc3ccc(-c4cc(F)cc(F)c4)cc32)N=C1N (stereo not shown)", "IC50": "100 to 500 nM"}
